Exercise: for every item that follows, state its recorded ΔT1/2.
tested on: F21D (DNA, G4) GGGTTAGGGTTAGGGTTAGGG; test: FRET melting; settings: 5 mM K+, 95 mM Li+; 10 mM lithium cacodylate pH 7.2; 0.2 µM DNA, 1 µM porphyrin
Output should be the measured figure followed by the unit it is expressed in.

Here are 5 molecules. What values of ΔT1/2 were reported for them?
1. C=Cc1c(C)c2cc3c(C=C)c(C)c(cc4nc(cc5nc(cc1[nH]2)C(C)=C5CCC(=O)O)C(CCC(=O)O)=C4C)n3C
2. CCC1=C(C)c2cc3[nH]c(cc4nc(cc5[nH]c(cc1n2)c(C)c5CC)C(C)=C4CCC(=O)O)c(CCC(=O)O)c3C
3. C[n+]1ccc(-c2c3nc(c(-c4cc[n+](C)cc4)c4ccc([nH]4)c(-c4cc[n+](C)cc4)c4nc(c(-c5cc[n+](C)cc5)c5ccc2[nH]5)C=C4)C=C3)cc1
4. C=CC1=C(C)c2cc3[nH]c(cc4nc(cc5[nH]c(cc1n2)c(C)c5CCC(=O)O)C(CCC(=O)O)=C4C)c(C)c3C=C
5. C[n+]1ccc(-c2c3nc(c(-c4cc[n+](C)cc4)c4ccc([n-]4)c(-c4cc[n+](C)cc4)c4nc(c(-c5cc[n+](C)cc5)c5ccc2[n-]5)C=C4)C=C3)cc1.[Zn+2]

[out]
1. 8.5 ± 0.6 °C
2. 0.2 ± 0.3 °C
3. 34 ± 2 °C
4. 0.2 ± 0.3 °C
5. 23 ± 1 °C

Source listed as paper PMC3384297.
